Tested on: MS2 coat protein
test details: apparent KD of MS2 coat protein; designed switch direction (-1 OFF switch, 1 ON switch): -1; higher = weaker reporter binding
recorded conditions: Eterna round: R95; input ligand: microRNA oligo, concentration not stated
readout: apparent KD of MS2 coat protein (µM)
Answer in µM, number only, no unit symbol.

// returns reported apparent KD of MS2 coat protein for input GUCGAGUGAGGAUAUGGUGAGUAGUGCCAGAGCGCUGCUCACCAGAAGGCACAUGAGGAUCACCCAUGUAUAGC [Mat - Exclusion 4 - Mod of JL - D13] (puzzle: Exclusion 4)
0.0152

Reported apparent KD of MS2 coat protein, sequence AAGAAACAUGAGGAUCACCCAUGUGAGGAUAUGUAAAAUAAAAGAAAAGAAAGAAUAAACAGAAGGCACAAAGG [Mat - Mod of Hog D14] (puzzle: Exclusion 1) : ____
0.0644

Fill in the blank: the reported apparent KD of MS2 coat protein of GUUACACAUGAGGAUCACCCAUGUAAGGAUAUGCUGCGGUCGCGAAAACGUGACUGCAGCAGAAGGUACACAUG [Mat - Mod of JL D61] (puzzle: Exclusion 1) is ____.
0.135

For the sequence GGUACUAACAGCUGACUGUUAGUACUGUAGGUUUGUGUUACAUGAGGAUCACCCAUGUCCUCAUAAGCUCGUCUUGU [JL-sv3-2.23 mat747 mod] (puzzle: Sensor v3, turn-off variant 2) , what apparent KD of MS2 coat protein is on record?
0.252

Requested field: apparent KD of MS2 coat protein. Item: GUGAGACAUGAGGAUCACCCAUGUCAGGAUAUGAUACUAUGUACUUCGGUACAUAGUAUCAGAAGGGACAGUGA [Ex1-3: 5] (puzzle: Exclusion 1)
0.0425

Requested read-out: apparent KD of MS2 coat protein. Entry: AAUAACAGAGGAUAUACUAUUUUAUGUGUUUGUUGUUUUAAACAUGAGGAUCACCCAUGUAGAAGGCUGAAUAA [JMF 18] (puzzle: Exclusion 2)
0.02

Suppose we examine the sequence GCUGGACAUGAGGAUCACCCAUGUGAGGAUAUCGGCUGGUACGUGUUGGCUGGCAUCUCGAGAAGGCACAUAGU [Exclusion 1 V63] (puzzle: Exclusion 1) ; what apparent KD of MS2 coat protein value has been reported?
0.0282

GET /values?readout=apparent KD of MS2 coat protein&item= UUUUAACAUGAGGAUCACCCAUGUGAGGAUAUCGAAAUUUAUAUUAAUAUUUAUUUAACGAGAAGGCACAUUUU [JMF 63] (puzzle: Exclusion 1)
0.0932

Bench note: what apparent KD of MS2 coat protein did UUUUCUUUUGUGAGGAUAUACUUGUUUUUUUUUUUGUAGAAGGCACAUGAGGAUCACCCAUGUUUUCUUUCCUG [JR_BME4_Sub025] (puzzle: Brourd's mod of Exclusion 4) show?
0.0201

# query: apparent KD of MS2 coat protein of entry UAUUACUCAGGAUAUAUGAUGUGAAACAUGAGGAUCACCCAUGUAAUAUUAUGGAUGUAAAUAGAAGGGAGAUUUU [Mat - Exclusion 5 - JL mod - D18] (puzzle: Exclusion 5)
0.0684
